# System: Bacillus subtilis
# EXPERIMENTAL_PROTOCOL: cleaved RNA product abundance (RNA/gDNA barcode ratio) relative to median wild-type variant (ratio to wild type); higher = more accumulation of the downstream cleavage product
# PARTICULARS: experiment (reporter, strain, medium): exp 2b: truncated aprE reporter, strain BJT200; cleavage site: cggR-gapA (positions -7 to +36 mutated)
This section presents sequences with their documented cleaved RNA product abundance values.
Please give only the number in your answer, with no unit.

Study these solved cases before continuing.
ACAGACGAAGGAGCCGCAAATAAGTTATTAAGGGATGAATAATCTCTCAATATAAATATCTCTCACTTATTTAAA = 0.613
ACAGACGAAGGAGCCGCAAAGAAGTTATTAATGGATGAATAAACCCTCAATATAAATATCTCTCACTTATTTAAA = 0.0999
ACAGACGAAGGAGCCGCAAAGAAGTTATTAAGGGATGCATAATCACTCAATATAAATATCTCTCACTTATTTAAA = 0.0901
ACAGACGAAGGAGCCGCAAAGAAGTTATTTAGGGATGAATAATCCGTCAATATAAATATCTCTCACTTATTTAAA = 0.169
ACAGACGAAGGAGCCGCAAAGAAGTTATTAAGGGATGACTAATCCCTCAATATATATATCTCTCACTTATTTAAA = 0.293

Just so you know, measured cleaved RNA product abundance for ACAGACGAAGGAGCCGCAAAGAAGTTATTAAGGGATGAATAAACCCTCATTATAAATATCTCTCACTTATTTAAA came out at 0.13

Just so you know, measured cleaved RNA product abundance for ACAGACGAAGGAGCCGCAAATAAGTTATTAAGGGATGAAAAATCCCTCAATATAAATATCTCTCACTTATTTAAA came out at 0.805

Just so you know, measured cleaved RNA product abundance for ACAGACGAAGGAGCCGCAAGGAAGCTATTAAGGGATGAATAATCCCTCAATATAAATATCTCTCACTTATTTAAA came out at 0.644

Just so you know, measured cleaved RNA product abundance for ACAGACGAAGGAGCCGCAATGAAGTTATTAAGGGATGAATAATGCCTCAATATAAATATCTCTCACTTATTTAAA came out at 0.122

* * *

This section presents sequences with their documented cleaved RNA product abundance values.
# System: Bacillus subtilis
# EXPERIMENTAL_PROTOCOL: cleaved RNA product abundance (RNA/gDNA barcode ratio) relative to median wild-type variant (ratio to wild type); higher = more accumulation of the downstream cleavage product
# PARTICULARS: experiment (reporter, strain, medium): exp 8a: truncated aprE reporter, strain BJT201 with 2% xylose (RNase J1 expressed); cleavage site: glnRA (positions -5 to +31 mutated)
Please give only the number in your answer, with no unit.

CGACATGTCCCGCTTCTTTCATTAATCCCTAAGCAACTGTTTTGCTATATACATTTACCTTTTAAGAGGAGGAAT = 0.229
CGACATGTCCCGCTTCTTTCATTAATAGGTTAGCAACTGTTTTGCTATATACATTTACCTTTTAAGAGGAGGAAT = 0.766
CGACATGTCCCGCTTCTTTCATTACTCCGTTAGCAACTGTTTTGCTATATACATTTACCATTTAAGAGGAGGAAT = 1.3
CGACATGTCCCGCTTCTTTCATTAATCCGTTAGCAACTGTTTTGCTGTATACATTTACCTTTTAAGAGGAGGAAT = 0.219

Alright, here's another sequence for you.
Just so you know, measured cleaved RNA product abundance for CGACATGTCCCGCTTCTTTCATTAATCCGTTAGCAACTGTTTTGCTAAAGACATTTACCTTTTAAGAGGAGGAAT came out at 0.0969
